target: USP5 (Homo sapiens, UniProt P45974)
Sequence (P45974 whole entry, species assumed): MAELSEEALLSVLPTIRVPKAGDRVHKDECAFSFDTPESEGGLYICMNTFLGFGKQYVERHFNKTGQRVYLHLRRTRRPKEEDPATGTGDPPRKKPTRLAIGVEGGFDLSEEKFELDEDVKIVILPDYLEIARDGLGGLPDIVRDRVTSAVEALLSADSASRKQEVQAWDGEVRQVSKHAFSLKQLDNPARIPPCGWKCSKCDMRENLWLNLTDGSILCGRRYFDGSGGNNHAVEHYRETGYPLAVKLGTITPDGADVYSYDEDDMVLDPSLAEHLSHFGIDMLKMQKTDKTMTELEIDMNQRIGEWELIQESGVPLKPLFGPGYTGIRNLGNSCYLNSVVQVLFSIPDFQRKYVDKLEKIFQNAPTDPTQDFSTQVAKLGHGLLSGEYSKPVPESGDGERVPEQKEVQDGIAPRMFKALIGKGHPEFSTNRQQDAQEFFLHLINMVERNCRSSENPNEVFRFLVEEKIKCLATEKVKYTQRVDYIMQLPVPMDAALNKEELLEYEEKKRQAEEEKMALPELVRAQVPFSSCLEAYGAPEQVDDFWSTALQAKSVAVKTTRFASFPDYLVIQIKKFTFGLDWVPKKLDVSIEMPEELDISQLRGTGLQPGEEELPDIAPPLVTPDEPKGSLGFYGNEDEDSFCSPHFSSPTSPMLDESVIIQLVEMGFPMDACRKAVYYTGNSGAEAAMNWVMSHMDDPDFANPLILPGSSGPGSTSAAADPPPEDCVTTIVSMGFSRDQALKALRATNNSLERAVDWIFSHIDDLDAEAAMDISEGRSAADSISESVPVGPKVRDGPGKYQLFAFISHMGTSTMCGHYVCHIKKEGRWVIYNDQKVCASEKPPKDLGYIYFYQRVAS
pIC50: −log10 of the molar value.
RESULT_TYPE: pIC50

COMPOUND	RESULT_COMPARATOR	OBS_VALUE
N#Cc1nc2c(nc1C#N)-c1ccc(F)cc1C2=O [Example 17h]	=	6.00
COc1nc2c(nc1C#N)C(=O)c1ccccc1-2	<	4.00
CC(=O)O/N=C1\c2ccccc2-c2nc(C(N)=O)c(C#N)nc21 (single isomer, unassigned)	=	6.79
COc1ccc(OC)c2c1C(=O)c1nc(C#N)c(C#N)nc1-2 [Example 17f]	=	5.48
N#Cc1nc2c(nc1C#N)-c1ccccc1C2=NOCCOc1ccccc1 [Example 27a]	<	4.00
N#Cc1nc2c(nc1C#N)-c1ccccc1C2=O	=	5.89
N#Cc1nc2c(nc1N1CCC(F)(F)CC1)-c1ccccc1C2=O	<	4.00

###

test system: PC-3 prostate cancer cells; assay: PC3 cell viability and proliferation assay (MTS); type: cell-based; settings: Homo sapiens, PC-3, 72 h, read-out: PC3 D3 GI50
Below: a set of entries, each annotated with reported GI50.
RESULT_TYPE: GI50 (nM)

COMPOUND	RESULT_TYPE	DISPLAY_UNIT	OBS_VALUE
N#Cc1nc2c(nc1C#N)C(=O)c1ccccc1C2=O [Example 20]	GI50	nM	1260
C=CCON=C1c2ccc(Cl)cc2-c2nc(C#N)c(C#N)nc21 [Example 27c]	GI50	nM	803
CCc1ccc2c(c1)-c1nc(C#N)c(C#N)nc1C2=O [Example 32]	GI50	nM	1430
C=CCON=C1c2ccccc2-c2nc(C(N)=O)c(C#N)nc21 [Example 34a]	GI50	nM	511
CCON=C1c2ccccc2-c2nc(C(N)=O)c(C#N)nc21 [Example 34b]	GI50	nM	479
N#Cc1nc2c(nc1C#N)-c1cc(Cl)c(Cl)cc1C2=O [Example 31]	GI50	nM	2430
N#Cc1nc2c(nc1C#N)-c1ccc(Cl)cc1C2=NNC(N)=O [Example 43]	GI50	nM	655
COCCON=C1c2ccccc2-c2nc(C(N)=O)c(C#N)nc21 [Example 34c]	GI50	nM	362
C=CCON=C1c2ccccc2-c2nc(C#N)c(C#N)nc21 (mixture of isomers) [Example 13b]	GI50	nM	540

###

Target: USP8 (Homo sapiens, UniProt P40818)
Sequence (P40818 1-1118): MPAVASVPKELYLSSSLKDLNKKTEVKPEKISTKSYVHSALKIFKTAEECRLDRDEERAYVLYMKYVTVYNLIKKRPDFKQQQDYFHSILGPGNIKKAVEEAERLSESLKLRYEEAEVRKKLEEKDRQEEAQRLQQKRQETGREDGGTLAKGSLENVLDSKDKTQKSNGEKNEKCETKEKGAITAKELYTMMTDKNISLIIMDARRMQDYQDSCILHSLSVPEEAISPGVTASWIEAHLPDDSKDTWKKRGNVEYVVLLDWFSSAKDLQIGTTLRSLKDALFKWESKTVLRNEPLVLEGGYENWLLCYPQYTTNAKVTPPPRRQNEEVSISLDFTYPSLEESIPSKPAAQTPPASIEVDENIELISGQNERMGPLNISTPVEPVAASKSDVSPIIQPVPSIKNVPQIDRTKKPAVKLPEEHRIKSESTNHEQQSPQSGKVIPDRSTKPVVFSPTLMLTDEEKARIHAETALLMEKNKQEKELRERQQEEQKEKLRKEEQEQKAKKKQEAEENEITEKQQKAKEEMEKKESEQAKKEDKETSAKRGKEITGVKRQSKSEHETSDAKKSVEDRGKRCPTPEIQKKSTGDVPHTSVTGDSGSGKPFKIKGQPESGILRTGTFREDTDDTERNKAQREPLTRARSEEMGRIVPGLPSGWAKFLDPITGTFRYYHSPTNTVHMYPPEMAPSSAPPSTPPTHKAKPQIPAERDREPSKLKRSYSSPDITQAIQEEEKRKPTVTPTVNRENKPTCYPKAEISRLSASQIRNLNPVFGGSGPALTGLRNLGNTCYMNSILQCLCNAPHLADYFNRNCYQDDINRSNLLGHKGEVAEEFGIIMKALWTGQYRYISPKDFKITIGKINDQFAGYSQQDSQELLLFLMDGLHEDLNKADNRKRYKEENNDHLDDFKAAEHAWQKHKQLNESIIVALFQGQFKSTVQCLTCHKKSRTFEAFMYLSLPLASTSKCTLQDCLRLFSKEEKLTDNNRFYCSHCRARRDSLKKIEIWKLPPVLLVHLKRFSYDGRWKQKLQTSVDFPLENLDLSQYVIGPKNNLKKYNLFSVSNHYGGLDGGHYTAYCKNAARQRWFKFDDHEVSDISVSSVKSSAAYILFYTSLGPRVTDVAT
pIC50: −log10 of the molar value.
pIC50 of 6 or higher: MET. Under 6: NOT MET.

MOLECULE	LABEL_CLASS
N#Cc1nc2c(nc1CC(N)=O)-c1ccccc1C2=O	NOT MET
N#Cc1nc2c(nc1C#N)-c1ccccc1/C2=N/Oc1ccccc1 [Example 13e]	MET
N#Cc1nc2c(nc1C(N)=O)-c1ccccc1/C2=N\OCC(=O)NCC(=O)O	MET
Cc1cccc2c1Cc1nc(C#N)c(C#N)nc1-2 [Example 16c]	NOT MET
Cc1cccc2c1C(=O)c1nc(C#N)c(C#N)nc1-2 [Example 17c]	NOT MET
N#Cc1nc2c(nc1C#N)-c1ccc(Cl)cc1C2=O [Example 17g]	MET
CCOC(=O)CO/N=C1\c2ccccc2-c2nc(C(N)=O)c(C#N)nc21	MET
Cc1c(F)ccc2c1C(=O)c1nc(C#N)c(C#N)nc1-2	MET
N#Cc1nc2c(nc1C#N)C1(OCCO1)c1ccccc1-2	NOT MET
COCCOc1nc2c(nc1C#N)C(=O)c1ccccc1-2	NOT MET
CCSc1nc2c(nc1C#N)C(=O)c1ccccc1-2	NOT MET
COc1cc2c(cc1OC)-c1nc(C#N)c(C#N)nc1C2=O [Example 17b]	NOT MET
N#Cc1nc2c(nc1O)-c1ccccc1C2=O	NOT MET
N#Cc1nc2c(nc1C#N)-c1ccccc1C2=NOCCOc1ccccc1 [Example 27a]	NOT MET
CCON=C1c2ccccc2-c2nc(C(N)=O)c(C#N)nc21 [Example 34b]	MET
CCc1ccc2c(c1)-c1nc(C#N)c(C#N)nc1C2=O	MET
CON=C1c2ccccc2-c2nc(C(N)=O)c(C#N)nc21 [Example 34d]	MET

###

// reported pIC50 per item
Molecular target: USP8 (Homo sapiens, UniProt P40818)
Sequence (P40818 1-1118): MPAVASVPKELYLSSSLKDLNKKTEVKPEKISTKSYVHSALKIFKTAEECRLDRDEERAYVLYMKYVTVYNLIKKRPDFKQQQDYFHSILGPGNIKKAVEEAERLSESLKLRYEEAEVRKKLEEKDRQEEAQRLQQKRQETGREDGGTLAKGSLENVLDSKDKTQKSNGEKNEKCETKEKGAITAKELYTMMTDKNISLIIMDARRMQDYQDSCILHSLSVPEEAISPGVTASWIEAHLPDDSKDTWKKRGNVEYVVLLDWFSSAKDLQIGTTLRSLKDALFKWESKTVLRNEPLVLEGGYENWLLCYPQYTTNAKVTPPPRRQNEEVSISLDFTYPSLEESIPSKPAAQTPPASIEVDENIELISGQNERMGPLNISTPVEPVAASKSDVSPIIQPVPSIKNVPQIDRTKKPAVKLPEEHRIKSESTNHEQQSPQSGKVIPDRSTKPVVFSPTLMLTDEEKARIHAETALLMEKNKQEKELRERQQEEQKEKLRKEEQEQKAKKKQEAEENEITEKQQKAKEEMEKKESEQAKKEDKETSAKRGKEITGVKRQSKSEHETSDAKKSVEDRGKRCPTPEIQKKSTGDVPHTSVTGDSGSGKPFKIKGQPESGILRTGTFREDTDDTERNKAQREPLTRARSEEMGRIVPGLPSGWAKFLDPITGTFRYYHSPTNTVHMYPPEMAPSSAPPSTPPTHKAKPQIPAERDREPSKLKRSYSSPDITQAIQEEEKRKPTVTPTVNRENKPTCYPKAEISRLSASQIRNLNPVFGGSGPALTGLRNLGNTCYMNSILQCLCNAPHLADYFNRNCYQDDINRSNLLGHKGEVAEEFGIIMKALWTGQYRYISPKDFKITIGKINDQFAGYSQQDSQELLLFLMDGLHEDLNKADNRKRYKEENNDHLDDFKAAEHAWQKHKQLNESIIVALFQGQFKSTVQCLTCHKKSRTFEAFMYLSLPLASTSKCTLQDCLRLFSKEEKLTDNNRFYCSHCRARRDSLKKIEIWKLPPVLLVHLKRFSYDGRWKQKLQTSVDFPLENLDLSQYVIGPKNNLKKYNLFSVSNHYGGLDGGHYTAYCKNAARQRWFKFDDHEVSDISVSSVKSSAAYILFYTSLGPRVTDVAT
pIC50: −log10 of the molar value.

COMPOUND	RESULT_COMPARATOR	pIC50
N#Cc1nc2c(nc1C#N)-c1ccccc1C2=NOCc1ccccc1 (mixture of isomers) [Example 13C]	=	6.07
N#Cc1nc2c(nc1N)-c1ccccc1C2=O	=	4.32
C=CCON=C1c2ccccc2-c2nc(C(N)=O)c(C#N)nc21 [Example 34a]	=	7.24
COc1ccc2c(c1)C(=O)c1nc(C#N)c(C#N)nc1-2 [Example 17i]	=	5.68
N#Cc1nc2c(nc1C(N)=O)-c1ccccc1/C2=N\O [Example 11]	=	6.14
N#Cc1nc2c(nc1C#N)-c1ccccc1C2=O	=	6.54
C=CCON=C1c2ccccc2-c2nc(C#N)c(C#N)nc21 (mixture of isomers) [Example 13b]	=	6.25
N#CNc1nc2c(nc1C#N)C(=O)c1ccccc1-2	<	4.00
C=CCON=C1c2ccc(Cl)cc2-c2nc(C#N)c(C#N)nc21 [Example 27c]	=	6.70
N#Cc1nc2c(nc1N1CCC(F)(F)CC1)-c1ccccc1C2=O	<	4.00
